biological target: furin (endogenous protease) in U20S cells (Homo sapiens); construct: the endogenous protease cleaves GFP; endogenous in cells; host or cells: U2OS cells transduced with a BacMam reporter; test: Furin cell-based assay (image-based, Golgi-targeted GFP with BMP10 furin/PCSK cleavage site); details: 24-hour incubation, read-out: furin golgi cell pXC50 (converted)
Counter-ions that a name gives are not always drawn.
property: EC50 (nM)
Give bare numbers, in nM.

CNC(=O)NCC1(O)CCN(Cc2cc(Oc3ccc(N4CCNCC4)nc3)nc(-c3cc(Cl)cc(Cl)c3)c2)CC1 [Example 5, hydrochloride]: 63.1
CC(=O)NCC1CCN(Cc2cc(Oc3ccc(N4CC[C@@H](N)[C@@H](F)C4)nc3)cc(-c3cc(Cl)cc(Cl)c3)c2)CC1 [Example 106, hydrochloride]: 3.16
CC(C)(CO)CN1CCN(c2ncc(Oc3cc(CN4CCC(CC(=O)O)CC4)cc(-c4cc(Cl)cc(Cl)c4)n3)cn2)CC1: 15.8

Consider the following items and state reported EC50 for each.
1. CNC(=O)OCC1CCN(Cc2cc(Oc3ccc(N4CCNCC4)nc3)nc(-c3cc(Cl)cc(Cl)c3)c2)CC1 [Example 74, hydrochloride]
2. O=C(O)CC1CCN(Cc2cc(Oc3cnc(N4CCNCC(F)C4)nc3)nc(-c3cc(Cl)cc(Cl)c3)c2)CC1 (stereo not drawn)
3. O=C(O)COC1CCN(Cc2cc(Oc3cnc(N4CCNCC4)nc3)nc(-c3cc(Cl)cc(Cl)c3)c2)CC1

Data returned:
6.31
39.8
79.4

* * *

Could you please report measured log10(EC50) for the items listed next?
target: furin (endogenous protease) in U20S cells (Homo sapiens); construct: the endogenous protease cleaves GFP; endogenous in cells; host or cells: U2OS cells transduced with a BacMam reporter; test: Furin cell-based assay (image-based, Golgi-targeted GFP with BMP10 furin/PCSK cleavage site); conditions: 24-hour incubation, read-out: furin golgi cell pXC50 (converted)
Please note: log10 values; quantity EC50; unit nM.

CNC(=O)OCC1CCN(Cc2cc(Oc3cnc(N4CCN(C[C@@H](C)O)CC4)nc3)nc(-c3cc(Cl)cc(Cl)c3)c2)CC1: 1.10
O=C(O)CC1CCN(Cc2cc(Oc3cnc(N4CCN(CCO)CC4)nc3)nc(-c3cc(Cl)cc(Cl)c3)c2)CC1: 1.40
CC(=O)NCC1CCN(Cc2cc(Oc3ccc(N4CCN(CCCC(=O)O)CC4)nc3)nc(-c3cc(Cl)cc(Cl)c3)c2)CC1: 1.10
O=C(O)CC1CCN(Cc2cc(Oc3cnc(N4CCN(C5CC(O)C5)CC4)nc3)nc(-c3cc(Cl)cc(Cl)c3)c2)CC1 (stereo not shown): 1.00
CNCc1cc(Oc2ccc(N3CCN(C)CC3)nc2)cc(-c2cc(Cl)cc(Cl)c2)c1: 1.40
CC(CCN(C)C)N1CCN(c2ncc(Oc3cc(CN4CCC(CC(=O)O)CC4)cc(-c4cc(Cl)cc(Cl)c4)n3)cn2)CC1 (stereo not shown): 0.80

In the following, a different molecule is considered.
Data request: Reported log10(EC50), molecule O=C(O)CC1CCN(Cc2cc(Oc3cnc(N4CCCNCC4)nc3)nc(-c3cc(Cl)cc(Cl)c3)c2)CC1 : ____
Data returned: 1.80

* * *

Please go through the items and note down their EC50.
molecular target: furin (endogenous protease) in U20S cells (Homo sapiens, UniProt P09958); construct: the endogenous protease cleaves GFP; endogenous in cells; host or cells: U2OS cells transduced with a BacMam reporter; assay: Furin cell-based assay (image-based, Golgi-targeted GFP with BMP10 furin/PCSK cleavage site); conditions: 24-hour incubation, read-out: furin golgi cell pXC50 (converted);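 further: Read-out is mean GFP fluorescence of Golgi puncta per cell by high-content imaging, retained when furin inhibited, over an eleven-point 0.00017–10 µM series, four-parameter fit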
Sequence (P09958 108-794): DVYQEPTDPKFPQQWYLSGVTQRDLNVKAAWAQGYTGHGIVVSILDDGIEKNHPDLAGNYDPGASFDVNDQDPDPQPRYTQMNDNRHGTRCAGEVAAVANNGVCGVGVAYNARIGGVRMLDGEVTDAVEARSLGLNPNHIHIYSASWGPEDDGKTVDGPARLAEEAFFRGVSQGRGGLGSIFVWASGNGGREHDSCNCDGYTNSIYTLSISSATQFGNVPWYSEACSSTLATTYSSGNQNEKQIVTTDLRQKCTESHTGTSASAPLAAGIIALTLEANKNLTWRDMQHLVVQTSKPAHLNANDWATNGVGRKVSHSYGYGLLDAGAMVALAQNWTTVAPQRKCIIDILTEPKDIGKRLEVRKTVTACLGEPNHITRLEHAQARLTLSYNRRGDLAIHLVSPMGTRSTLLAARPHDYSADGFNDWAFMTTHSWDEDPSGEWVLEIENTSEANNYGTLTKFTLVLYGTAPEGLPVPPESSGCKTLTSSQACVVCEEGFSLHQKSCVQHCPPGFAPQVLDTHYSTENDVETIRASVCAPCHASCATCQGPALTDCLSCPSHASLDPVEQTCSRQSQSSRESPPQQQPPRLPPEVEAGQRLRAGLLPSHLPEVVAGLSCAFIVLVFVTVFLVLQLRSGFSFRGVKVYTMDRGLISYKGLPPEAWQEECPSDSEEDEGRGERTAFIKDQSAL
One number for each entry, in nM.

O=C(O)CC1CCN(Cc2cc(Oc3cnc(N4CCNCC4)cn3)nc(-c3cc(Cl)cc(Cl)c3)c2)CC1: 126
CNC(=O)NCC1CCN(Cc2cc(Oc3ccc(N4CCN(CCCS(N)(=O)=O)CC4)nc3)nc(-c3cc(Cl)cc(Cl)c3)c2)CC1: 6.31
CNC(=O)NCC1CCN(Cc2cc(Oc3cnc(N4CCN(C[C@@H](C)O)CC4)nc3)nc(-c3cc(Cl)cc(Cl)c3)c2)CC1: 3.98
CC(=O)NCC1CCN(Cc2cc(Oc3ccc(N4CCN(CCCS(C)(=O)=O)CC4)nc3)nc(-c3cc(Cl)cc(Cl)c3)c2)CC1: 5.01

Give one value of EC50 per listed compound.
1. CCN1CCCN(c2cnc(Oc3cc(CN4CCC(CC(=O)O)CC4)cc(-c4cc(Cl)cc(Cl)c4)n3)cn2)CC1
2. CC(=O)N[C@@H]1[C@@H]2CN(Cc3cc(Oc4cnc(N5CCCN(C)CC5)nc4)nc(-c4cc(Cl)cc(Cl)c4)c3)C[C@@H]21
3. COC(=O)NCC1CCN(Cc2cc(Oc3cnc(N4CCN(CCC(=O)O)[C@@H](C)C4)nc3)nc(-c3cc(Cl)cc(Cl)c3)c2)CC1

Data returned:
1. 12.6
2. 50.1
3. 20
